system_under_test: Adenosine receptor A3 (Homo sapiens, UniProt P0DMS8); further: assay procedure not described here
Sequence (P0DMS8 whole entry): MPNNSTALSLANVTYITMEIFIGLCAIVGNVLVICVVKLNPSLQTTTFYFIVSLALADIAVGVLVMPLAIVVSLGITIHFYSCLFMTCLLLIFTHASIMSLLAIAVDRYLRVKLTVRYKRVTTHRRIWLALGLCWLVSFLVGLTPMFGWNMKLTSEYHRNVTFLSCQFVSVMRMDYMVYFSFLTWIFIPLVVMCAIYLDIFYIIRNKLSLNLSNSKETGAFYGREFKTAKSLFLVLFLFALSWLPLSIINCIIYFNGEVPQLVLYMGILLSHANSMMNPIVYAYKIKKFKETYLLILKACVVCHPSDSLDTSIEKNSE
measurement_name: AC50

1) C[N@+]1(CCF)[C@@H]2CC[C@H]1C[C@@H](OC(=O)C(O)(c1ccccc1)c1ccccc1)C2 = > 30 µM
2) CN1C(C(=O)Nc2ccccn2)=C(O)c2ccccc2S1(=O)=O [PIROXICAM] = > 10 µM
3) CCC(=O)O[C@]1(C(=O)SCF)[C@H](C)C[C@H]2[C@@H]3C[C@H](F)C4=CC(=O)C=C[C@]4(C)[C@@]3(F)[C@@H](O)C[C@@]21C [FLUTICASONE PROPIONATE] = > 30 µM

Next, consider the following compound.
**Q:** // returns reported AC50 for input C[C@H]1c2cccc(O)c2C(=O)C2=C(O)[C@]3(O)C(=O)C(C(N)=O)=C(O)[C@@H](N(C)C)[C@@H]3[C@@H](O)[C@@H]21 [DOXYCYCLINE]
**A:** > 30 µM

* * *

system_under_test: D(3) dopamine receptor (Homo sapiens)
Attribute: AC50

1) COc1cc2nccc(Oc3ccc(NC(=O)C4(C(=O)Nc5ccc(F)cc5)CC4)cc3)c2cc1OC [CABOZANTINIB] = > 30 µM
2) CCN(CC)C(=O)Nc1ccc(OCC(O)CNC(C)(C)C)c(C(C)=O)c1 (centres undefined) [CELIPROLOL] = > 30 µM
3) COc1cc2nc(N3CCN(C(=O)C4CCCO4)CC3)nc(N)c2cc1OC (centres undefined) [TERAZOSIN] = > 30 µM
4) CC(=O)N[C@@H](CS)C(=O)O [ACETYLCYSTEINE] = > 30 µM
5) Nc1cc(-c2ccncc2)c[nH]c1=O [INAMRINONE] = > 30 µM
6) NC1CCN(c2nc3c(cc2F)c(=O)c(C(=O)O)cn3-c2ccc(F)cc2F)C1 (centres undefined) [TOSUFLOXACIN] = > 30 µM
7) C=CC[C@@H]1/C=C(\C)C[C@H](C)C[C@H](OC)[C@H]2O[C@@](O)(C(=O)C(=O)N3CCCC[C@H]3C(=O)O[C@H](/C(C)=C/[C@@H]3CC[C@@H](O)[C@H](OC)C3)[C@H](C)[C@@H](O)CC1=O)[C@H](C)C[C@@H]2OC [TACROLIMUS ANHYDROUS] = > 30 µM
8) C[C@H](CCC(=O)O)[C@H]1CC[C@H]2[C@@H]3[C@@H](O)C[C@@H]4C[C@H](O)CC[C@]4(C)[C@H]3CC[C@]12C [URSODIOL] = > 30 µM
9) Cc1noc(NS(=O)(=O)c2ccc(N)cc2)c1C [SULFISOXAZOLE] = > 30 µM
10) O=C1CN=C(c2ccccc2)c2cc([N+](=O)[O-])ccc2N1 [NITRAZEPAM] = > 30 µM

**Q:** // returns reported AC50 for input COc1cc2c(cc1OC)C(CCc1ccc(Cl)cc1)N(C)CC2 (centres undefined) [METHOPHOLINE]
**A:** > 30 µM

**Q:** Moving on to Clc1ccc2c(N3CCN(CCCN4CCN(c5ccnc6cc(Cl)ccc56)CC4)CC3)ccnc2c1 [PIPERAQUINE]
**A:** 9 µM

* * *

system_under_test: D(3) dopamine receptor (Homo sapiens, UniProt P35462)
Sequence (P35462 whole entry): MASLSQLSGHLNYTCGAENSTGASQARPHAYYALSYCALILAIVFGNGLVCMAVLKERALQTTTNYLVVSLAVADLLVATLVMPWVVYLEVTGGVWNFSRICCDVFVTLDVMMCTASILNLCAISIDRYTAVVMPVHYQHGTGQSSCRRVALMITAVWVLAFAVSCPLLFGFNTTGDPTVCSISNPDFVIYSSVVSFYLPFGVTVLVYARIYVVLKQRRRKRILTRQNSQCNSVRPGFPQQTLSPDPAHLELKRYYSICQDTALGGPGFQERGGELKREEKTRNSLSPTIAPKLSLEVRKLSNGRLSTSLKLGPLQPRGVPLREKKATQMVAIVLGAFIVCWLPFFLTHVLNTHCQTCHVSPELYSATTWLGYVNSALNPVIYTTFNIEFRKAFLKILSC
measurement_name: AC50

1. O=[N+]([O-])c1ccc(O)c2ncccc12 = 20.4 µM
2. O=C(O)COc1ccc(C(=O)c2cccs2)c(Cl)c1Cl = > 30 µM

**Q:** // returns reported AC50 for input N[C@@H](CO)C(=O)O
**A:** > 30 µM

**Q:** Moving on to CC(CN1CC(=O)NC(=O)C1)N1CC(=O)NC(=O)C1 (stereo not given)
**A:** > 30 µM

**Q:** Moving on to O=C(O)CCCCC1CCSS1 (stereo not given)
**A:** > 30 µM

* * *

Attribute: AC50
system_under_test: Muscarinic acetylcholine receptor M1 (Homo sapiens); further: assay procedure not described here
Sequence (P11229 whole entry): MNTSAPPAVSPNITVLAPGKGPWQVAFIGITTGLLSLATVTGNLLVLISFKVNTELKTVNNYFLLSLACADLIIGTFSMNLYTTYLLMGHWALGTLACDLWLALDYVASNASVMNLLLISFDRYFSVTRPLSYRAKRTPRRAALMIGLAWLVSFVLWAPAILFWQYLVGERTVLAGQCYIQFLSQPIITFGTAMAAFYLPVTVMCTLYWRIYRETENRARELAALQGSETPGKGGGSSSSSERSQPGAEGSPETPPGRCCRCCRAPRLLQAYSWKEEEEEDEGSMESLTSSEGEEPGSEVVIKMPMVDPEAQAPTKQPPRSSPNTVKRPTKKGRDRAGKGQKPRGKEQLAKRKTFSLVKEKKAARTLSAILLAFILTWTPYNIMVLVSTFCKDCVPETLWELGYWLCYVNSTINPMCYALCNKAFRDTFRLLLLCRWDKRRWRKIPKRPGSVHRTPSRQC
Assay type: functional

Use these answered entries as a reference point.
1) Cc1cc(C(C)(C)C)cc(C)c1CC1=NCCN1 = 14.4 µM
2) CC12CC3CC(C)(C1)CC(N)(C3)C2 [MEMANTINE] = > 10 µM

**Q:** API: value(readout= AC50, system= Muscarinic acetylcholine receptor M1 (Homo sapiens), query= Clc1ccc2c(N3CCN(CCCN4CCN(c5ccnc6cc(Cl)ccc56)CC4)CC3)ccnc2c1 ); further: assay procedure not described here
**A:** 3.8 µM

**Q:** Moving on to C=CCNc1nc(NCC=C)nc(N2CCN(C(c3ccc(F)cc3)c3ccc(F)cc3)CC2)n1
**A:** > 30 µM

**Q:** Moving on to C#CCOc1ccc(N)cc1C(=O)NCCCC [PARSALMIDE]
**A:** > 30 µM

**Q:** Moving on to CC(N)C(O)c1ccccc1 (centres undefined)
**A:** > 10 µM

**Q:** Moving on to CN(C)CCCNc1c2ccccc2nc2cccc([N+](=O)[O-])c12
**A:** 11 µM

**Q:** Moving on to Nc1ncn([C@H]2C[C@H](O)[C@@H](CO)O2)c(=O)n1
**A:** > 30 µM

**Q:** Moving on to C[C@]12CCC(=O)C(O)=C1CC[C@@H]1[C@@H]2CC[C@]2(C)C(=O)CC[C@@H]12
**A:** > 30 µM

* * *

system_under_test: Alpha-1A adrenergic receptor (Homo sapiens); further: assay procedure not described here
Sequence (P35348 whole entry): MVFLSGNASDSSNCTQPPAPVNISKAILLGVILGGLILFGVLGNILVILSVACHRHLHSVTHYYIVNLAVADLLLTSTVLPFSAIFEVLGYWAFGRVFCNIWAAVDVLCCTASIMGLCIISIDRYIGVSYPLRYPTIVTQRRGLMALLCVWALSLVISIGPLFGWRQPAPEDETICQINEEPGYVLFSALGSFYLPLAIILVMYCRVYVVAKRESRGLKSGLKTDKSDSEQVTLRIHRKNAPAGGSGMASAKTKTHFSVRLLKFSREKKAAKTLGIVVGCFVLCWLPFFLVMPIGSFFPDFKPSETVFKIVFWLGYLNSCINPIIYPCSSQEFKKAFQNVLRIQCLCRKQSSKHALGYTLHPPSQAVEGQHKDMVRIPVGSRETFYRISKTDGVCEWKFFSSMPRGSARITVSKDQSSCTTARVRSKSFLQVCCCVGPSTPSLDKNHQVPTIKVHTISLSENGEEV
measurement_name: AC50

Use these answered entries as a reference point.
1) CCCCC(=O)O[C@]1(C(=O)CO)[C@@H](C)C[C@H]2[C@@H]3CCC4=CC(=O)C=C[C@]4(C)[C@@]3(F)[C@@H](O)C[C@@]21C [BETAMETHASONE VALERATE] = > 10 µM
2) CN(C)CCc1c[nH]c2ccc(Cn3cncn3)cc12 = > 10 µM
3) CCc1cc(C(N)=S)ccn1 [ETHIONAMIDE] = > 10 µM
4) CC(C(=O)O)c1ccc(-c2ccccc2)c(F)c1 (configuration not stated) = > 10 µM
5) COc1ccc(CC2c3cc(OC)c(OC)cc3CC[N+]2(C)CCC(=O)OCCCCCOC(=O)CC[N+]2(C)CCc3cc(OC)c(OC)cc3C2Cc2ccc(OC)c(OC)c2)cc1OC (configuration not stated) = > 30 µM
6) CCN(CC)CCN1C(=O)CN=C(c2ccccc2F)c2cc(Cl)ccc21 = > 10 µM

Next, consider the following compound.
**Q:** // returns reported AC50 for input O=C1CN(/N=C/c2ccc(-c3ccc([N+](=O)[O-])cc3)o2)C(O)=N1
**A:** > 10 µM

* * *

system_under_test: UniProt P21731
Sequence (P21731 whole entry): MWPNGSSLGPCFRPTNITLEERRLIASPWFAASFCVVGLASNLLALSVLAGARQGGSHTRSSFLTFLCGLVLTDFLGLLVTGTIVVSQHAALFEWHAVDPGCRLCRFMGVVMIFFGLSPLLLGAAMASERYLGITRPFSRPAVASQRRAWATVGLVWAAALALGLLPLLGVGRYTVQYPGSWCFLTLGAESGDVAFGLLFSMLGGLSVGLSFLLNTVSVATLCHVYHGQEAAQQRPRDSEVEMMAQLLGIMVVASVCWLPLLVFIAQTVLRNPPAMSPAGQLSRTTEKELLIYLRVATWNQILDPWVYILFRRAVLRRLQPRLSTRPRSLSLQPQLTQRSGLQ
Assay type: functional, cell-based
measurement_name: AC50

Use these answered entries as a reference point.
1. CCOC(=O)N1CSC[C@H]1C(=O)O = > 30 µM
2. Cc1ccccc1N1CCN(CCc2nnc3n2CCCC3)CC1 = > 30 µM
3. CC(C)N(CCNC(=O)CN1CCCC1=O)C(C)C = > 30 µM
4. Cc1cc(NC(=O)C2=C(O)c3ccccc3S(=O)(=O)N2C)no1 = > 30 µM

**Q:** // returns reported AC50 for input C=CCSCC1Nc2cc(Cl)c(S(N)(=O)=O)cc2S(=O)(=O)N1 (configuration not stated) [ALTHIAZIDE]
**A:** > 30 µM

**Q:** Moving on to N[C@@H](CS)C(=O)O
**A:** > 30 µM

**Q:** Moving on to CC(C)OC(=O)CCC/C=C\C[C@@H]1[C@@H](/C=C/C(F)(F)COc2ccccc2)[C@H](O)C[C@@H]1O
**A:** 29.6 µM

**Q:** Moving on to O=C(O)CCCCC1CCSS1 (configuration not stated)
**A:** > 30 µM

**Q:** Moving on to CC(N)Cc1ccc(O)cc1 (configuration not stated) [HYDROXYAMPHETAMINE]
**A:** > 30 µM

**Q:** Moving on to COc1cc2nccc(Oc3ccc(NC(=O)C4(C(=O)Nc5ccc(F)cc5)CC4)cc3)c2cc1OC [CABOZANTINIB]
**A:** 17.5 µM

**Q:** Moving on to CC[C@H](C)C[C@H](C)CCCCCCCCC(=O)N[C@H]1C[C@@H](O)[C@@H](NCCN)NC(=O)[C@@H]2[C@@H](O)CCN2C(=O)[C@H]([C@H](O)CCN)NC(=O)[C@H]([C@H](O)[C@@H](O)c2ccc(O)cc2)NC(=O)[C@@H]2C[C@@H](O)CN2C(=O)[C@H]([C@@H](C)O)NC1=O
**A:** > 30 µM

Reference source: ChEMBL document CHEMBL5291721
